Data origin, for the record: paper PMC4336329

# systemTested: human ether-à-go-go-related gene (hERG) potassium channel (human, UniProt Q12809);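 further: peak tail current of the secondary pulse compared with the same well before compound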
# Sequence (Q12809 whole entry, looked up): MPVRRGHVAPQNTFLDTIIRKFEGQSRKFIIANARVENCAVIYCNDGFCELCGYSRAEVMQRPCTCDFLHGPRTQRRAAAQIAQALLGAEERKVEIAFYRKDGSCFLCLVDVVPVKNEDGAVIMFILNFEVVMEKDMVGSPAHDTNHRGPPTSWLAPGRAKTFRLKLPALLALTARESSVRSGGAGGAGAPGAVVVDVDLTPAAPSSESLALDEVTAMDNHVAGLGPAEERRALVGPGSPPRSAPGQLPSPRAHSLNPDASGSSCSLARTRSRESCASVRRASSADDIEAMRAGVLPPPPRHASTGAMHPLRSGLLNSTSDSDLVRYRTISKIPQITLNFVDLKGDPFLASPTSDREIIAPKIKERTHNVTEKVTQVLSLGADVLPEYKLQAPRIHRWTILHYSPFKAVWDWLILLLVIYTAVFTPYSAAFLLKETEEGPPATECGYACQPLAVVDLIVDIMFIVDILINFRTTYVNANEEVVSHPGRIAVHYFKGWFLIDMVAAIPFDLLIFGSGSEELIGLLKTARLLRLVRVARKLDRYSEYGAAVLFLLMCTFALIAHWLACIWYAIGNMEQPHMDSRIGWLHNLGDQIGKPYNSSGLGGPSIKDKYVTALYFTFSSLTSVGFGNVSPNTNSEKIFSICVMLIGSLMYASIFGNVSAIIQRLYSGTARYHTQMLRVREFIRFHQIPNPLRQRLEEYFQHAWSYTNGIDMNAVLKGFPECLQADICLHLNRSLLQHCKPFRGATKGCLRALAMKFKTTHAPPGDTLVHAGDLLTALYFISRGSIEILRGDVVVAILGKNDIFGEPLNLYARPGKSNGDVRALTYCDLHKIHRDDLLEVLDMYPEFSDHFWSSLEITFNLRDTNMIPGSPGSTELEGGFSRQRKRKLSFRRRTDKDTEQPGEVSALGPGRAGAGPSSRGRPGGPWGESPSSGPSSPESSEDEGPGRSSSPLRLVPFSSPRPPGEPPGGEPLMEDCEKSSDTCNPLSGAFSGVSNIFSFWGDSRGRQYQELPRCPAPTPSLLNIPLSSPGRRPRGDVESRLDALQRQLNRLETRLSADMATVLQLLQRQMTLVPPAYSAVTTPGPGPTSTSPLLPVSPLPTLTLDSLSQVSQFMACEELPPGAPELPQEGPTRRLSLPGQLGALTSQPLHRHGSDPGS
# testDescription: primary screen, population patch clamp on CHO cells stably expressing hERG; higher = less effect of the substance
Out of some 310,000 compounds screened, about 14,000 (4.5%) showed an effect of 50% or more. The effect is printed as a negative number. For the sample, strong results were picked, then their nearest neighbours and some compounds at random.
reportedMetric: hERG current change (%, negative = inhibition) at 10uM

Worked examples follow.
- CCOC(=O)c1c(C)[nH]c(C(=O)OCC(=O)Nc2ccc(Cl)cn2)c1C: 6.52%
- Cc1sc2ncn(CC(=O)NCCCC(=O)N3CCN(c4ccccc4F)CC3)c(=O)c2c1C: -20.9%
- Cc1cc(OCC(=O)NCc2ccncc2)c2c(C)c(C)c(=O)oc2c1: -40.6%

Record hERG current change (%, negative = inhibition) at 10uM for all entries; do not skip any.
1. COc1ccccc1-c1coc2c(CN3CCCCC3C)c(O)ccc2c1=O (stereo not drawn)
2. Cc1cccc(NC(=O)c2cc(C)nc3ccccc23)c1
3. O=C(CC1OC(=O)c2ccccc21)Nc1cc(S(=O)(=O)N2CCOCC2)ccc1OCC(F)(F)F (stereo not drawn)
4. Cc1cc(Nc2cccc(O)c2)c2ccccc2n1.Cl
5. CC1=C/C(=C(/c2ccc(O)c(C)c2)c2ccccc2S(=O)(=O)[O-])C=CC1=O.[Na+]
6. CN(C)Cc1c(O)ccc2c(=O)c(-c3ccc(Cl)cc3)coc12

Result:
6.44%
14.7%
-52.2%
-64.2%
3.9%
-9.92%

# map each molecule to its hERG current change (%, negative = inhibition) at 10uM
1. CCCCc1cc(=O)oc2cc(C)cc(OCC(=O)NCc3ccccn3)c12
2. Cc1cc(Nc2cccc(Br)c2)c2ccccc2n1

Result:
1. -56.4%
2. -86.2%

Go through the items and report each one's hERG current change (%, negative = inhibition) at 10uM.
1. O=C(Nc1cc(S(=O)(=O)N2CCOCC2)ccc1OCC(F)(F)F)C1=COCCO1
2. CC1CCCN(Cc2c(O)ccc3c(=O)c(-c4nc5ccccc5s4)c(N)oc23)C1 (stereo not drawn)
3. CCn1cnc2cc(NCc3ccc(Br)cc3)ccc21
4. Cc1cc(=O)[nH]c(Nc2cccc(Br)c2)n1
5. COc1ccc(CCNC(=O)c2ccccc2C(=O)NCCc2ccc(OC)cc2)cc1
6. COc1ccc([C@H]2CC(=O)C=C(c3ccc4c5c(cccc35)CC4)C2)cc1
7. CCCn1cnc2cc(NCc3cccc(OC)c3)ccc21
8. Cc1cc(OCC(=O)NCc2ccncc2)c2c3c(c(=O)oc2c1)CCCC3

Result:
1: -42.8%; 2: -0.886%; 3: -61.3%; 4: 12.4%; 5: -12%; 6: 16%; 7: -67.2%; 8: -62.2%

State the recorded hERG current change (%, negative = inhibition) at 10uM for every item in the following list.
1. CCCn1cnc2cc(NCc3cccs3)ccc21
2. COc1ccc(CNc2ccc3c(c2)nc(C)n3C)cc1
3. CCCc1cc(=O)oc2cc(C)cc(OCC(=O)NCc3ccccn3)c12
4. Cc1cc(OCC(=O)NCc2cccnc2)c2c3c(c(=O)oc2c1)CCCC3
5. CCc1cc(=O)oc2cc(C)cc(OCC(=O)NCc3ccncc3)c12
6. CC(CC(=O)Nc1cc(S(=O)(=O)N2CCOCC2)ccc1OCC(F)(F)F)c1ccccc1 (stereo not drawn)
7. CC1CCCCN1Cc1c(O)ccc2c(=O)c(-c3ccccc3)coc12 (stereo not drawn)

Result:
1: -10.9%; 2: -31.9%; 3: -33.7%; 4: -40.1%; 5: -54.8%; 6: -50.2%; 7: -38.2%
